Below, each entry is listed alongside its reported IC50.
Molecular target: UniProt:P48740
Sequence (P48740 other isoform, or with tags, fused parts or gaps): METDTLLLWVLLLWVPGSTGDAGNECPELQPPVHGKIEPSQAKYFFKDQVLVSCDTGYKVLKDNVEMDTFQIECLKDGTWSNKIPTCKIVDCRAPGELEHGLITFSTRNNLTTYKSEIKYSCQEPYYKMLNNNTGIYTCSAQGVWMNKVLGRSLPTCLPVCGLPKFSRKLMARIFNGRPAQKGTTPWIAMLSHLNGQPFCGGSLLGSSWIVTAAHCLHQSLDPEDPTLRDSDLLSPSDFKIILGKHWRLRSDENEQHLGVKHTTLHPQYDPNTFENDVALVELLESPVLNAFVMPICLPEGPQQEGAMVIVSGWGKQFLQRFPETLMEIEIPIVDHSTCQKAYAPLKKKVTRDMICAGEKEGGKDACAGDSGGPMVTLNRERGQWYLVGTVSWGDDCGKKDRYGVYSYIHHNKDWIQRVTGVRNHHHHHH
Assay: Biochemical human MASP1 assay (FRET substrate)
Settings: Average IC50; recombinant human MASP1; read-out: human MASP1 IC50
Where a SMILES comes first, the peptide text is derived from it. Bridges are numbered along the chain shown (N, C = ends). [ ]: non-standard residue; d: D form. tBuAla = CC(C)(C)C[C@H](N)C(=O)O; Pen = CC(C)(S)[C@H](N)C(=O)O; PEG2 = NCCOCCOCCC(=O)O
Express the result in nM but write the number alone.

CC[C@H](C)[C@@H]1NC(=O)[C@H](C)NC(=O)CCOCCOCCNC(=O)[C@H](CC(=O)O)NC(=O)[C@@H]2CCCN2C(=O)[C@H]([C@@H](C)CC)NC(=O)[C@H]2NC(=O)[C@H]([C@@H](C)CC)NC(=O)[C@@H]3CCCN3C(=O)[C@@H]3CCCN3C(=O)[C@H](CC(C)(C)C)NC(=O)[C@H](CO)NC(=O)[C@H](CCCNC(=N)N)NC(=O)[C@H](CO)NC(=O)[C@H](CSSC2(C)C)NC1=O [Example 34] (cyclo(AICSRS[tBuAla]PPI[Pen]IPD[PEG2]); disulfide 3-11): 11

Challenge: Specify measured IC50 for CC[C@H](C)[C@@H]1NC(=O)CNC(=O)[C@@H](N)CCCCNC(=O)[C@H](CC(=O)O)NC(=O)[C@@H]2CCCN2C(=O)[C@H]([C@@H](C)CC)NC(=O)[C@@H]2CSSC[C@H](NC1=O)C(=O)N[C@@H](CO)C(=O)N[C@@H](CCCNC(=N)N)C(=O)N[C@@H](CO)C(=O)N[C@@H](CC(C)C)C(=O)N1CCC[C@H]1C(=O)N1CCC[C@H]1C(=O)N[C@@H]([C@@H](C)CC)C(=O)N2 [Example 22] (H-KGICSRSLPPICIPD; lactam 1-C; disulfide 4-12) .
Response given: 190
